# target.or.system: HDAC5 (Homo sapiens (Human), UniProt Q9UQL6)
# Sequence (Q9UQL6 656-1122): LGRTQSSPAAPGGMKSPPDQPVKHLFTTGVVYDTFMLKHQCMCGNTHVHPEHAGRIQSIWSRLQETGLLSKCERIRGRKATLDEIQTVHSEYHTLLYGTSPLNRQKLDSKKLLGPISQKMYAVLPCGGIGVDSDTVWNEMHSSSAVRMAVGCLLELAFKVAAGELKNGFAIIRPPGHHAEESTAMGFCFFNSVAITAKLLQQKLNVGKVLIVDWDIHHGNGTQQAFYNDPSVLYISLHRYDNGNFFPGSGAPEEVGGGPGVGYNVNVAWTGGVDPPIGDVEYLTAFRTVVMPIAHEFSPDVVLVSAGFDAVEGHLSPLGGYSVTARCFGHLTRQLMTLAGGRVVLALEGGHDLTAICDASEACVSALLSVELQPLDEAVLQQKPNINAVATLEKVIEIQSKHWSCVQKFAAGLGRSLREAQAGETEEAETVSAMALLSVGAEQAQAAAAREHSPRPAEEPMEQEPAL
# assay.setup: read-out: HDAC5 IC50
Provide the recorded IC50 for the entries that follow.
Numbers only, in µM.

compound	IC50 (µM)
CC1(C)COCCN1C(=O)[C@@H]1CCC(=O)N1c1ccc(-c2noc(C(F)(F)F)n2)c(F)c1	1.9
O=C1CCC(c2ccccc2Cl)N1c1cc(F)c(-c2noc(C(F)(F)F)n2)cc1F (racemic)	0.079
CC(C)(C)CC(=O)NC(Cc1ccc(-c2noc(C(F)(F)F)n2)cn1)c1cccc(C(F)(F)F)c1 (racemic)	0.71
O=C(C1CCS(=O)(=O)CC1)N(Cc1ccc(-c2noc(C(F)(F)F)n2)cc1F)c1cccc(C(F)(F)F)c1	0.52
O=C(NCc1ccc(-c2noc(C(F)(F)F)n2)cc1)C1CCCC1	0.94

Value sought for every listed compound: IC50.
1. O=C1CCC(c2ccccc2F)N1c1ccc(-c2noc(C(F)(F)F)n2)cc1F (racemic)
2. COc1ncccc1OCc1ccc(-c2noc(C(F)(F)F)n2)c(F)c1

[reply]
1: 0.13; 2: 0.12

Value sought for every listed compound: IC50.
1. O=C1NCCc2c(OCc3ccc(-c4noc(C(F)(F)F)n4)c(F)c3)cccc21
2. O=C(OCCOCCCl)[C@@H]1CCC(=O)N1c1ccc(-c2noc(C(F)(F)F)n2)c(F)c1
3. Cn1cc(COc2nccc(-c3noc(C(F)(F)F)n3)c2Cl)nn1
4. Cc1cc(OCc2ccc(-c3noc(C(F)(F)F)n3)c(F)c2)cc(C)n1
5. Fc1cc(COc2cccnn2)ccc1-c1noc(C(F)(F)F)n1

[reply]
[0.11, 0.05, 0.51, 0.23, 0.2]

Value sought for every listed compound: IC50.
1. Cc1noc([C@@H]2CCCCN2c2ccc(-c3noc(C(F)(F)F)n3)cn2)n1
2. Cn1nccc1OCc1ccc(-c2noc(C(F)(F)F)n2)c(F)c1
3. CCc1nnc([C@@H]2CCC(=O)N2c2cc(F)c(-c3noc(C(F)(F)F)n3)cc2F)o1
4. Fc1cc(COc2nc3cccnc3n2C2CC2)ccc1-c1noc(C(F)(F)F)n1
5. O=C1COC[C@@H](c2ccccc2)N1c1cc(F)c(-c2noc(C(F)(F)F)n2)cc1F
6. Fc1cc(COc2cnc(C3CC3)nc2)ccc1-c1noc(C(F)(F)F)n1
7. Cn1c(OCc2ccc(-c3noc(C(F)(F)F)n3)cn2)nc2cccnc21

[reply]
1. 0.15
2. 0.14
3. 0.018
4. 0.031
5. 0.003
6. 0.12
7. 0.079

###

# target.or.system: HDAC8 (Homo sapiens (Human))
# Sequence (Q9BY41 whole entry): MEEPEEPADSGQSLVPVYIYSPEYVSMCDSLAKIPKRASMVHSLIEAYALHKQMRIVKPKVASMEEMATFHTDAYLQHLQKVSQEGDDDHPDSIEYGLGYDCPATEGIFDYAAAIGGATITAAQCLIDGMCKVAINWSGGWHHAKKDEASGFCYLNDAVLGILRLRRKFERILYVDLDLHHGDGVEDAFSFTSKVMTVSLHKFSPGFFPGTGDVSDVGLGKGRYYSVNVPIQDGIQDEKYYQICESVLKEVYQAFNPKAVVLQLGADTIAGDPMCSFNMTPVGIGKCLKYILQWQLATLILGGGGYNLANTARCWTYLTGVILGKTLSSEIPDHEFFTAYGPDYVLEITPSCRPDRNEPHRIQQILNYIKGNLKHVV
Kindly apply the following: Satisfied if IC50 is less than 2000 nM, Not satisfied in every other case.

Here's what some known entries look like.
molecule	target.or.system	label.class
CC(C)(C)OC(=O)[C@@H]1CCC(=O)N1c1ccc(-c2noc(C(F)(F)F)n2)cc1F	HDAC8 (Homo sapiens (Human))	Not satisfied
O=C1COC[C@@H](c2ccccc2)N1c1ccc(-c2noc(C(F)(F)F)n2)cc1F	HDAC8 (Homo sapiens (Human))	Not satisfied
CC(C(=O)N(Cc1ccc(-c2noc(C(F)(F)F)n2)cn1)c1cccc(F)c1)n1cccn1 (racemic)	HDAC8 (Homo sapiens (Human))	Satisfied
O=C1CC[C@@H](c2nc3ccccc3[nH]2)N1c1ccc(-c2noc(C(F)(F)F)n2)cc1	HDAC8 (Homo sapiens (Human))	Satisfied
Fc1cc(COc2ccc3ncnn3c2)ccc1-c1noc(C(F)(F)F)n1	HDAC8 (Homo sapiens (Human))	Not satisfied
O=C(Cn1ccnn1)N(Cc1ccc(-c2noc(C(F)(F)F)n2)cc1)c1cccc(C(F)(F)F)c1	HDAC8 (Homo sapiens (Human))	Not satisfied
COc1ccc(NCc2ccc(-c3noc(C(F)(F)F)n3)cn2)cn1	HDAC8 (Homo sapiens (Human))	Not satisfied

[ask] Does the reported IC50 of "O=c1ccc2ccccc2n1Cc1ncc(-c2noc(C(F)(F)F)n2)cn1" stay below 2000 nM?
[reply] Not satisfied

###

Lab note: pIC50 readings collected with HDAC1 (Homo sapiens (Human), UniProt Q13547) for the following molecules.
Sequence (Q13547 whole entry): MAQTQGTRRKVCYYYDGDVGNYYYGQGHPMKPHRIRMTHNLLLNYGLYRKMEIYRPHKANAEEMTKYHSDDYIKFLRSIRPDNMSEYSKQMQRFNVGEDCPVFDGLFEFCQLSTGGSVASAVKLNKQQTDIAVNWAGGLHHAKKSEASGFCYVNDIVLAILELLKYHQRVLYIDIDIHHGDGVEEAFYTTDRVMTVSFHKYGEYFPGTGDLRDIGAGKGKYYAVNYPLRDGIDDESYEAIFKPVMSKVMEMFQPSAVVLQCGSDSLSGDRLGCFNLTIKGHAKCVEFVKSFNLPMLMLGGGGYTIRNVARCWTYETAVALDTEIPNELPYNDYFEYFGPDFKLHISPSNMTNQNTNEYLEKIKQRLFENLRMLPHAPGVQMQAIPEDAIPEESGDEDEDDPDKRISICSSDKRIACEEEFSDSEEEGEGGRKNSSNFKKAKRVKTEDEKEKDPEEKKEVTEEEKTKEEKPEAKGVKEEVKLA
Give bare numbers, as −log10 of the molar value.

Value sought for every listed molecule: pIC50.
1. FC(F)(F)c1nc(-c2ccc(CNC3CCc4[nH]nc(C(F)(F)F)c4C3)cc2)no1 (racemic) [Example 353]
2. O=C(C1CC1c1cncnc1)N(Cc1ccc(-c2noc(C(F)(F)F)n2)cc1)c1cccc(C(F)(F)F)c1 (racemic) [Example 73]

[reply]
[6.39, 6.03]

Value sought for every listed molecule: pIC50.
1. O=C1CCc2cccc(C(F)(F)F)c2N1Cc1ccc(-c2noc(C(F)(F)F)n2)cn1 [Example 475]
2. FC(F)(F)c1nc(-c2ccnc(OCc3nc4ccccc4[nH]3)c2)no1 [Example 200]
3. FC(F)(F)c1nc(-c2ccc(CNC3CCN(c4ncccn4)C3)cc2)no1 (racemic) [Example 354]
4. Fc1ccc2c(c1)N(Cc1ccc(-c3noc(C(F)(F)F)n3)cn1)CCO2 [Example 347]
5. FC(F)(F)c1nc(-c2ccnc(OCc3ccn(C4CC4)n3)c2)no1 [Example 222]
6. O=C1c2cc(F)ccc2CCN1Cc1ccc(-c2noc(C(F)(F)F)n2)cn1 [Example 327]
7. FC(F)(F)c1nc(-c2ccc(CNc3cnsc3)nc2)no1 [Example 433]
8. Fc1cc(COc2ccc3ncnn3c2)ccc1-c1noc(C(F)(F)F)n1 [Example 240]

[reply]
1: 6.06; 2: 6.35; 3: 5.80; 4: 6.22; 5: 5.46; 6: 6.19; 7: 6.05; 8: 5.82

Value sought for every listed molecule: pIC50.
1. Fc1cc(COc2cccnn2)ccc1-c1noc(C(F)(F)F)n1 [Example 257]
2. Cc1ccc2c3c(nn2c1)CCC(NCc1ccc(-c2noc(C(F)(F)F)n2)cc1)C3 (racemic) [Example 352]
3. COc1ncc(OCc2ccc(-c3noc(C(F)(F)F)n3)c(F)c2)cn1 [Example 279]
4. FC(F)(F)c1nc(-c2ccnc(OCc3nccnc3Cl)c2Cl)no1 [Example 294]
5. O=C(C1CCS(=O)(=O)C1)N(Cc1ccc(-c2noc(C(F)(F)F)n2)cn1)c1cccc(F)c1 (racemic) [Example 54]

[reply]
1: 5.19; 2: 7.36; 3: 6.12; 4: 4.92; 5: 6.57

Value sought for every listed molecule: pIC50.
1. O=C(Nc1ccccc1)c1ccccc1NCc1ccc(-c2noc(C(F)(F)F)n2)cn1 [Example 447]
2. Fc1cc(COc2cc(C(F)F)ncn2)ccc1-c1noc(C(F)(F)F)n1 [Example 242]
3. Cn1c([C@@H]2CCC(=O)N2c2ccc(-c3noc(C(F)(F)F)n3)cc2F)nc2ccccc21 [Example 107]

[reply]
[6.01, 5.54, 6.52]

Value sought for every listed molecule: pIC50.
1. Cn1c(OCc2ccc(-c3noc(C(F)(F)F)n3)c(F)c2)nc2cccnc21 [Example 238]
2. Cc1cn(C(C)C(=O)N(Cc2ccc(-c3noc(C(F)(F)F)n3)cn2)c2cccc(F)c2)nn1 (racemic) [Example 64]
3. Cc1cc(NCc2ccc(-c3noc(C(F)(F)F)n3)cn2)on1 [Example 380]
4. O=C(C1CCOCC1)N(Cc1ccc(-c2noc(C(F)(F)F)n2)cn1)c1cccc(F)c1 [Example 60]
5. O=C1CCC(c2ccccc2Cl)N1c1ccc(-c2noc(C(F)(F)F)n2)c(F)c1 (racemic) [Example 37]

[reply]
1: 6.29; 2: 6.70; 3: 6.03; 4: 6.64; 5: 4.80

Value sought for every listed molecule: pIC50.
1. Fc1ccc(C2COCCN2c2ccc(-c3noc(C(F)(F)F)n3)cn2)cc1 (racemic) [Example 142]
2. Cc1csc(OCc2ccc(-c3noc(C(F)(F)F)n3)c(F)c2)n1 [Example 281]
3. O=C1CCC[C@@H](c2nc3ccccc3s2)N1c1ccc(-c2noc(C(F)(F)F)n2)cc1 [Example 25]
4. COc1cncc(OCc2ccc(-c3noc(C(F)(F)F)n3)c(F)c2)c1 [Example 258]
5. Fc1cccc(C2COCCN2c2ccc(-c3noc(C(F)(F)F)n3)cn2)c1 (racemic) [Example 137]
6. CN1CCOC(CNCc2ccc(-c3noc(C(F)(F)F)n3)cn2)C1 (racemic) [Example 452]
7. Cc1cccc(CCOc2cc(-c3noc(C(F)(F)F)n3)ccn2)n1 [Example 139]
8. FC(F)(F)c1nc(-c2ccc(N3CCOCC3c3ccccc3Cl)nc2)no1 (stereo not shown) [Example 130]

[reply]
6.30
5.57
6.66
5.92
6.36
5.55
5.47
6.32

Value sought for every listed molecule: pIC50.
1. Fc1cc(COc2ccc(Cl)nc2)ccc1-c1noc(C(F)(F)F)n1 [Example 288]
2. FC(F)(F)c1nc(-c2ccc(COc3nccc4nccn34)nc2)no1 [Example 303]
3. NCc1cccc(OCc2ccc(-c3noc(C(F)(F)F)n3)c(F)c2)c1 [Example 267]

[reply]
1. 4.35
2. 6.00
3. 5.96
